The measurements presented in this section are drawn from the domain aggregation screens of Martell et al. (2025).

Could you please report measured soluble fraction (log2) for the items listed next?
- TEST: soluble fraction after stress (log2 fold change); higher = more stays soluble; pooled small domains, quantitative proteomics;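 note: 20 min heating vs room temperature control held 20 min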
- SETUP CONDITIONS: stress: 75 degC

[ask] For the sequence HMEPIAFDNMHNRGIKGTNDWTQYEITLPFSAEAKKIFVAGLLVGKGKAWFDKFEVFLDGKNITDVAQI , give its reported soluble fraction (log2).
[reply] 0.0509

[ask] For the sequence HMALSSQQIKDMQSWYGTKADGIWGSKSTTAAGGRDAGAAYSLYSSNKGRYSSYTDYMSYGGG , give its reported soluble fraction (log2).
[reply] 0.341

[ask] For the sequence HMSASIAEGTVIMLENTTNIRSGMSEDSSKVGTAYAGEKVTVVMSYAEGWTKVKWNGETGYIKTALLQL , give its reported soluble fraction (log2).
[reply] -0.607

[ask] For the sequence HMPAVTEQTRANLRTAFWSLYREKPTSKITVREITDRAGYNRATFYLYYRDVYDLFEQIEQEIL , give its reported soluble fraction (log2).
[reply] -2.37

[ask] For the sequence HMKEVELENMIKAKGFKDAAVLVDERSVTVIVESERLAAGDSASIKELVSRGTGVDPQNVVII , give its reported soluble fraction (log2).
[reply] -0.31
